# testMethodNotes: Multiple-dose
# Format: in vivo, human (healthy subjects)
# measurementParameters: human, plasma, oral, 15 mg, t1/2, steady state, 15 mg once-daily ER, fasting, n = 12, mean ± SD
measurementKind: half-life at 7 days (h)
Write the number in h without appending the unit.

response.value for `CC[C@@H]1CN(C(=O)NCC(F)(F)F)C[C@@H]1c1cnc2cnc3[nH]ccc3n12` (field: half-life at 7 days) = 16.9

====

# testMethodNotes: Multiple-dose
# Type: in vivo, human (healthy subjects)
# measurementParameters: human, plasma, oral, 15 mg, Cmax, steady state (day 7), 15 mg once-daily ER, nonfasting, n = 12, mean ± SD
measurementKind: Cmax (ng/mL)
Give a bare numeral; the unit ng/mL is implied.

Measured Cmax of `CC[C@@H]1CN(C(=O)NCC(F)(F)F)C[C@@H]1c1cnc2cnc3[nH]ccc3n12` : 36

====

# Format: in vivo, human (healthy subjects)
# measurementParameters: human, plasma, oral, 15 mg, AUC∞, single 15 mg ER, fasting, n = 11, mean ± SD
measurementKind: AUC(0-inf) (µg·h/mL)
Note: unit µg·h/mL is implicit; provide only the numeric part.

Record `CC[C@@H]1CN(C(=O)NCC(F)(F)F)C[C@@H]1c1cnc2cnc3[nH]ccc3n12` . Reported AUC(0-inf): 0.242

====

# testMethodNotes: Multiple-dose
# Assay type: in vivo, human (healthy subjects)
# measurementParameters: human, plasma, oral, 15 mg, Cmax, steady state (day 7), 15 mg once-daily ER, fasting, n = 12, mean ± SD
measurementKind: Cmax
Just so you know, I need the unit written after the number.

Summary for this compound, CC[C@@H]1CN(C(=O)NCC(F)(F)F)C[C@@H]1c1cnc2cnc3[nH]ccc3n12 [Upadacitinib] : Cmax is 31.9 ng/mL

====

# testMethodNotes: Multiple-dose
# Assay type: in vivo, human (healthy subjects)
# measurementParameters: human, plasma, oral, 12 mg, AUC0–24, steady state (day 7), 12 mg twice-daily IR, fasting, n = 11, mean ± SD
measurementKind: AUC(0-t) (ng·h/mL)
State just the number; it will be interpreted in ng·h/mL.

Summary for this compound, CC[C@@H]1CN(C(=O)NCC(F)(F)F)C[C@@H]1c1cnc2cnc3[nH]ccc3n12 [Upadacitinib] : AUC(0-t) is 534

====

# testMethodNotes: Multiple-dose
# Format: in vivo, human (healthy subjects)
# measurementParameters: human, plasma, oral, 12 mg, t1/2, steady state, 12 mg twice-daily IR, fasting, n = 11, mean ± SD
measurementKind: half-life at 7 days (h)
Your answer should be a plain number; it is taken to be in h.

Consider CC[C@@H]1CN(C(=O)NCC(F)(F)F)C[C@@H]1c1cnc2cnc3[nH]ccc3n12 [Upadacitinib] . Its measured half-life at 7 days is 11.5

====

# Type: in vivo, human (healthy subjects)
# measurementParameters: human, plasma, oral, 30 mg, AUC∞, single 30 mg ER, fasting, n = 12, mean ± SD
measurementKind: AUC(0-inf) (ng·h/mL)
Just the number in ng·h/mL, nothing appended.

Just so you know, measured AUC(0-inf) for `CC[C@@H]1CN(C(=O)NCC(F)(F)F)C[C@@H]1c1cnc2cnc3[nH]ccc3n12` came out at 491

====

# testMethodNotes: Multiple-dose
# Assay type: in vivo, human (healthy subjects)
# measurementParameters: human, plasma, oral, 30 mg, AUC0–24, steady state (day 7), 30 mg once-daily ER, nonfasting, n = 12, mean ± SD
measurementKind: AUC(0-t)

Notebook: `CC[C@@H]1CN(C(=O)NCC(F)(F)F)C[C@@H]1c1cnc2cnc3[nH]ccc3n12` , AUC(0-t) read as 582 ng·h/mL

src = paper PMC6585649
